Property: z-score; scope: individual molecules
ASSAY PROTOCOL: FRG1 promoter luciferase signal modulators, primary screen, FRG1 inhibition for FSHD, cell-based, C2C12 myotubes, firefly/Renilla luciferase, luminescence (AID 1084)
CONDITION SET: higher = more signal, called active from +8 up or from −8 down

MOLECULE	z-score
CCCCCCc1nc(-c2cc(C)c(OC)c(C)c2)cc2c1[Si](C(C)C)(C(C)C)OC2	0.515
COC(=O)[C@@]1(Cc2ccc(F)cc2)[C@H]2c3cc(C(=O)N(C)C)n(Cc4ccccc4)c3C[C@H]2CN1C(=O)c1ccccc1	0.403
CCCC[C@@H]1C[C@H]1[C@@H](NC(=O)c1ccco1)c1ccccc1C(F)(F)F	0.792
C=CCOC(=O)[C@H]1[C@@H]2C(=O)O[C@@H](c3ccccc3)[C@@H](c3ccccc3)N2[C@@H](c2ccc(OCCOC(=O)[C@@H]3C[C@@H]4C(=O)N[C@@H](CCCCNC(C)=O)C(=O)N4[C@@H]3c3ccc(O)cc3)cc2)[C@]12C(=O)Nc1ccccc12	0.159
CN1C(=O)C2C=CC(C(O)C#Cc3ccccc3)N(N3CCCCC3)C2C1=O (centres undefined)	-0.995
C[C@H]1NC(=O)[C@@]23C(=O)N[C@@H](Cc4ccccc4)C2[C@H](C)[C@@]2(C)O[C@H]2C3/C=C/C/C=C\CNC(=O)[C@@H]2CCCN2C1=O (some centres undefined)	0.182
NC(=O)[C@@H]1[C@H]2C(=O)O[C@H](c3ccccc3)[C@H](c3ccccc3)N2[C@H](c2ccc(O)cc2)[C@@]12C(=O)Nc1ccccc12	0.308
O=C(NCCO)C1=C[C@H](Oc2ccccc2I)[C@@H](O)[C@H](N(Cc2ccco2)C(=O)Cc2ccccc2)C1	0.157
CCC[C@@H]1C[C@@]1(CCC)[C@@H](NS(=O)(=O)c1cccc2cccnc12)c1ccc(Cl)cc1	-3.58
O=C1N(Cc2ccccc2)c2ccccc2[C@@H]2OC(c3ccc(OCCCO)cc3)=N[C@]12CCS(=O)(=O)c1ccccc1	-2.27
C=CC[C@@]12N=C(c3ccc(OCCCO)cc3)O[C@@H]1c1ccccc1N(C)C2=O	1.72
COCCOC(=O)N1C(=O)[C@@]2(c3cc(C#CC4(O)CCCCCC4)ccc31)[C@H](c1ccc(OCCO)cc1)N1[C@H](c3ccccc3)[C@H](c3ccccc3)OC(=O)[C@H]1[C@@H]2C(=O)N1CCN(c2ncccn2)CC1	-0.254
CC(C)CNC(=O)[C@@]1(Cc2ccccc2I)c2ccccc2C(=O)N(C2CCCCC2)[C@H]1c1ccc(CO)cc1	-3.41
COc1ccc(C(O)C2C=CC3C(=O)N(Cc4ccccc4)C(=O)C3N2n2cnnc2)cc1OCc1ccccc1 (centres undefined)	0.364
